Tested on: cancer cell lines from the cancer cell line encyclopedia (CCLE)
testProtocol: Cell line profiling (CLiP) proliferation experiment
Assay type: cell-based
conditions: Homo sapiens, CAL-85-1, CAL-85-1 cells; read-out: Crossing Point
readoutLabel: IC50

Query CC(C)[C@@]12C[C@@H](O)[C@@](C)(O1)[C@@H]1CC[C@@H](C)[C@H]1[C@@H]2OC(=O)/C=C/c1ccccc1 yields IC50 of > 30 µM

###

Test system: cancer cell lines from the cancer cell line encyclopedia (CCLE)
testProtocol: Cell line profiling (CLiP) proliferation experiment
Format: cell-based
conditions: Homo sapiens, RT-112, cell line RT-112, urinary_tract, transitional_cell_carcinoma; read-out: Crossing Point
readoutLabel: pIC50
Interpret pIC50 as the negative base-10 log of the concentration measured in mol/L.

Query CC(C)[C@@]12C[C@@H](O)[C@@](C)(O1)[C@@H]1CC[C@@H](C)[C@H]1[C@@H]2OC(=O)/C=C/c1ccccc1 yields pIC50 of 4.78

###

Test system: cancer cell lines from the cancer cell line encyclopedia (CCLE)
testProtocol: Cell line profiling (CLiP) proliferation experiment
Format: cell-based
conditions: Homo sapiens, CHP-212, CHP-212, autonomic_ganglia, NS; read-out: Inflection Point
readoutLabel: pEC50
Interpret pEC50 as the negative base-10 log of the concentration measured in mol/L.

Query CC(C)[C@@]12C[C@@H](O)[C@@](C)(O1)[C@@H]1CC[C@@H](C)[C@H]1[C@@H]2OC(=O)/C=C/c1ccccc1 yields pEC50 of 4.86

###

Test system: cancer cell lines from the cancer cell line encyclopedia (CCLE)
testProtocol: Cell line profiling (CLiP) proliferation experiment
Format: cell-based
conditions: Homo sapiens, A2780, cell line A2780; ovary; adenocarcinoma; read-out: Inflection Point
readoutLabel: EC50 (µM)
Give just the numeric value; µM need not be written.

Query CC(C)[C@@]12C[C@@H](O)[C@@](C)(O1)[C@@H]1CC[C@@H](C)[C@H]1[C@@H]2OC(=O)/C=C/c1ccccc1 [Englerin B] yields EC50 of 12.1

###

Tested on: cancer cell lines from the cancer cell line encyclopedia (CCLE)
testProtocol: Cell line profiling (CLiP) proliferation experiment
Assay type: cell-based
conditions: Homo sapiens, RS4-11, RS4;11 (haematopoietic_and_lymphoid_tissue); read-out: Inflection Point
readoutLabel: EC50
Include the unit after the number when you answer.

Query CC(C)[C@@]12C[C@@H](O)[C@@](C)(O1)[C@@H]1CC[C@@H](C)[C@H]1[C@@H]2OC(=O)/C=C/c1ccccc1 yields EC50 of 17.9 µM

###

Tested on: cancer cell lines from the cancer cell line encyclopedia (CCLE)
testProtocol: Cell line profiling (CLiP) proliferation experiment
Type: cell-based
conditions: Homo sapiens, MEG-01, MEG-01 (haematopoietic_and_lymphoid_tissue); read-out: Crossing Point
readoutLabel: IC50 (µM)
Give just the numeric value; µM need not be written.

Query CC(C)[C@@]12C[C@@H](O)[C@@](C)(O1)[C@@H]1CC[C@@H](C)[C@H]1[C@@H]2OC(=O)/C=C/c1ccccc1 yields IC50 of 29.2

###

Tested on: cancer cell lines from the cancer cell line encyclopedia (CCLE)
testProtocol: Cell line profiling (CLiP) proliferation experiment
Format: cell-based
conditions: cell line PE/CA-PJ41 (clone D2); read-out: Crossing Point
Procedure: Compound profiling experiment and data analysis was performed as previously described. Data was imported and plotted using the Tibco Spotfire DXP application. Lines were categorized as sensitive, intermediate and refractory as follows: Amax<-40 & Inflection Point <2 ~ Sensitive, Amax>-20 & Inflection Point >10 ~ Refractory, all else were called Intermediate. Cancer Cell line HG-U133 Plus 2 data was processed and normalized as described. […]
readoutLabel: IC50 (µM)
Give just the numeric value; µM need not be written.

Query CC(C)[C@@]12C[C@@H](O)[C@@](C)(O1)[C@@H]1CC[C@@H](C)[C@H]1[C@@H]2OC(=O)/C=C/c1ccccc1 yields IC50 of 25.8

Entry source: paper PMC4476799
